As a worked illustration, we turn to IC50 data collected for Acrosin (Homo sapiens).
observed property: IC50 (mM)

Reference set (3 entries):
NC(N)=NS(=O)(=O)c1ccc(NC(=O)CN2CCCCC2)cc1 ... 7.41
Cc1ccc(OCC(=O)Nc2ccc(S(=O)(=O)N=C(N)N)cc2)cc1 ... 8.98
CC(C)OC(=O)C1CCN(CC(=O)Nc2ccc(S(=O)(=O)NC(=N)N)cc2)CC1 ... 2.35

1. Cc1cc(C)c(C(=O)Nc2ccc(S(=O)(=O)NC(=N)N)cc2)c(C)c1
2. N=C(N)NS(=O)(=O)c1ccc(NC(=O)COc2ccc([N+](=O)[O-])cc2)cc1
Looking at recorded values for IC50, does 1 or 2 come in lower? Provide the label of your selected option as the answer.
1
(1: 2.45 mM, 2: 4.2 mM)
